# Tested on: Hepatotoxicity
Each entry below lists one item and its recorded HepSE_Combined Scores value.
Returns: the value as a bare number; no unit string appended.

q: Find the measured HepSE_Combined Scores: item CC(=O)O.CCNC(=O)[C@@H]1CCCN1C(=O)[C@H](CCCNC(=N)N)NC(=O)[C@H](CC(C)C)NC(=O)[C@@H](CC(C)C)NC(=O)[C@H](Cc1ccc(O)cc1)NC(=O)[C@H](CO)NC(=O)[C@H](Cc1c[nH]c2ccccc12)NC(=O)[C@H](Cc1c[nH]cn1)NC(=O)[C@@H]1CCC(=O)N1 [LEUPROLIDE ACETATE] , target or system Hepatotoxicity.
a: 2

q: Find the measured HepSE_Combined Scores: item CCCNC(=O)NS(=O)(=O)c1ccc(Cl)cc1 [CHLORPROPAMIDE] , target or system Hepatotoxicity.
a: 1

q: Find the measured HepSE_Combined Scores: item CN1CC[C@]23c4c5ccc(O)c4O[C@H]2C(=O)CC[C@H]3[C@H]1C5 [HYDROMORPHONE] , target or system Hepatotoxicity.
a: 5

q: Find the measured HepSE_Combined Scores: item CCOC(=O)O[C@]1(C(=O)COC(=O)CC)CC[C@H]2[C@@H]3CCC4=CC(=O)C=C[C@]4(C)[C@H]3[C@@H](O)C[C@@]21C [PREDNICARBATE] , target or system Hepatotoxicity.
a: 0

q: Find the measured HepSE_Combined Scores: item CCCCC(C)(O)C/C=C/[C@H]1[C@H](O)CC(=O)[C@@H]1CCCCCCC(=O)OC (stereo partly specified) [MISOPROSTOL] , target or system Hepatotoxicity.
a: 0

q: Find the measured HepSE_Combined Scores: item CNS(=O)(=O)Cc1ccc2[nH]cc(CCN(C)C)c2c1 , target or system Hepatotoxicity.
a: 2

###

Entries with their measured HepSE_jaundice, system Hepatotoxicity:
Returns: the value as a bare number; no unit string appended.

compound	study system	HepSE_jaundice
CC(O)(CS(=O)(=O)c1ccc(F)cc1)C(=O)Nc1ccc(C#N)c(C(F)(F)F)c1 (centres undefined) [BICALUTAMIDE]	Hepatotoxicity	1
O=c1n(CCCN2CCN(c3cccc(Cl)c3)CC2)nc2ccccn12	Hepatotoxicity	1
CC1(C)O[C@@H]2C[C@H]3[C@@H]4CCC5=CC(=O)CC[C@]5(C)[C@@]4(F)[C@@H](O)C[C@]3(C)[C@]2(C(=O)CCl)O1 [HALCINONIDE]	Hepatotoxicity	0
CC(=O)N[C@H]1[C@H]([C@H](O)[C@H](O)CO)OC(C(=O)O)=C[C@@H]1N=C(N)N	Hepatotoxicity	0
CCN(CC)C(=O)/C(C#N)=C/c1cc(O)c(O)c([N+](=O)[O-])c1	Hepatotoxicity	0
Cc1ccc(N(CC2=NCCN2)c2cccc(O)c2)cc1	Hepatotoxicity	0
NC(=O)NO [HYDROXYUREA]	Hepatotoxicity	0
O=C(O)c1cc(/N=N/c2ccc(S(=O)(=O)Nc3ccccn3)cc2)ccc1O	Hepatotoxicity	1
CCCSc1ccc2nc(NC(=O)OC)[nH]c2c1	Hepatotoxicity	0
CC[C@@]1(O)C(=O)OCc2c1cc1n(c2=O)Cc2cc3c(CN(C)C)c(O)ccc3nc2-1	Hepatotoxicity	0

q: Find the measured HepSE_jaundice: item CC(C)NCC(O)COc1cccc2[nH]ccc12 (centres undefined) , target or system Hepatotoxicity.
a: 0

q: Find the measured HepSE_jaundice: item C[C@@H]1C[C@H]2[C@@H]3CCC4=CC(=O)C=C[C@]4(C)[C@@]3(Cl)[C@@H](O)C[C@]2(C)[C@@]1(O)C(=O)CCl , target or system Hepatotoxicity.
a: 0

q: Find the measured HepSE_jaundice: item CNC1(C)C2CCC(C2)C1(C)C (centres undefined) , target or system Hepatotoxicity.
a: 0

q: Find the measured HepSE_jaundice: item C[C@]12CC[C@@H]3c4ccc(OC(=O)N(CCCl)CCCl)cc4CC[C@H]3[C@@H]1CC[C@@H]2O , target or system Hepatotoxicity.
a: 0

q: Find the measured HepSE_jaundice: item CO[C@H]1/C=C/O[C@@]2(C)Oc3c(C)c(O)c4c(O)c(c5c(nc6cc(C)ccn65)c4c3C2=O)NC(=O)/C(C)=C\C=C\[C@H](C)[C@H](O)[C@@H](C)[C@@H](O)[C@@H](C)[C@H](OC(C)=O)[C@@H]1C , target or system Hepatotoxicity.
a: 0

q: Find the measured HepSE_jaundice: item CC(C)c1nc(N(C)S(C)(=O)=O)nc(-c2ccc(F)cc2)c1/C=C/[C@@H](O)C[C@@H](O)CC(=O)O , target or system Hepatotoxicity.
a: 1

q: Find the measured HepSE_jaundice: item O=S(=O)([O-])CCS.[Na+] , target or system Hepatotoxicity.
a: 0

q: Find the measured HepSE_jaundice: item COC(=O)[C@H]1[C@H]2C[C@@H]3c4[nH]c5cc(OC)ccc5c4CCN3C[C@H]2C[C@@H](OC(=O)c2cc(OC)c(OC)c(OC)c2)[C@@H]1OC , target or system Hepatotoxicity.
a: 0

q: Find the measured HepSE_jaundice: item CC1(C)S[C@@H]2[C@H](NC(=O)Cc3ccccc3)C(=O)N2[C@H]1C(=O)O , target or system Hepatotoxicity.
a: 0

q: Find the measured HepSE_jaundice: item CN(C)CC(c1ccc(O)cc1)C1(O)CCCCC1 (centres undefined) , target or system Hepatotoxicity.
a: 0

q: Find the measured HepSE_jaundice: item CC(C)(C)NCC(O)c1cc(O)cc(O)c1 (centres undefined) , target or system Hepatotoxicity.
a: 0

q: Find the measured HepSE_jaundice: item CC(NC(C)(C)C)C(=O)c1cccc(Cl)c1 (centres undefined) , target or system Hepatotoxicity.
a: 1

q: Find the measured HepSE_jaundice: item CSc1ccc2c(c1)N(CCC1CCCCN1C)c1ccccc1S2 (centres undefined) , target or system Hepatotoxicity.
a: 1

q: Find the measured HepSE_jaundice: item CN(C)CCc1c[nH]c2ccc(CS(=O)(=O)N3CCCC3)cc12 , target or system Hepatotoxicity.
a: 0

q: Find the measured HepSE_jaundice: item Cc1onc(-c2ccccc2)c1-c1ccc(S(N)(=O)=O)cc1 , target or system Hepatotoxicity.
a: 0

q: Find the measured HepSE_jaundice: item COc1nc(N)nc2c1ncn2[C@@H]1O[C@H](CO)[C@@H](O)[C@@H]1O , target or system Hepatotoxicity.
a: 0

q: Find the measured HepSE_jaundice: item CN(C)S(=O)(=O)c1ccc2c(c1)N(CCCN1CCC(CCO)CC1)c1ccccc1S2 , target or system Hepatotoxicity.
a: 1

q: Find the measured HepSE_jaundice: item CCCCCCCN(CC)CCCC(O)c1ccc(NS(C)(=O)=O)cc1 (centres undefined) [IBUTILIDE] , target or system Hepatotoxicity.
a: 0

q: Find the measured HepSE_jaundice: item N=C(N)NCCN1CCCCCCC1 , target or system Hepatotoxicity.
a: 0

q: Find the measured HepSE_jaundice: item O=C(N[C@H](CO)[C@H](O)c1ccc([N+](=O)[O-])cc1)C(Cl)Cl , target or system Hepatotoxicity.
a: 0

q: Find the measured HepSE_jaundice: item Cc1c(C)c2c(c(C)c1O)CCC(C)(COc1ccc(CC3SC(=O)NC3=O)cc1)O2 (centres undefined) , target or system Hepatotoxicity.
a: 1

q: Find the measured HepSE_jaundice: item Nc1nc(O)c2ncn(COC(CO)CO)c2n1 , target or system Hepatotoxicity.
a: 1

q: Find the measured HepSE_jaundice: item COc1ccc(CC2c3cc(OC)c(OC)cc3CC[N+]2(C)CCC(=O)OCCCCCOC(=O)CC[N+]2(C)CCc3cc(OC)c(OC)cc3C2Cc2ccc(OC)c(OC)c2)cc1OC (centres undefined) , target or system Hepatotoxicity.
a: 0

q: Find the measured HepSE_jaundice: item CC(=O)N1CCN(c2ccc(OCC3COC(Cn4ccnc4)(c4ccc(Cl)cc4Cl)O3)cc2)CC1 (centres undefined) , target or system Hepatotoxicity.
a: 0

###

Entries with their measured HepSE_jaundice, system Hepatotoxicity:

The examples below pair each entry with its known result.
compound	HepSE_jaundice
O=c1[nH]c(=O)n([C@H]2C[C@H](O)[C@@H](CO)O2)cc1I	0
C[C@H]1O[C@H](O[C@H]2[C@H](O)[C@@H](O)[C@@H](O[C@H]3[C@H](O)[C@@H](O)C(O)O[C@@H]3CO)O[C@@H]2CO)[C@H](O)[C@@H](O)[C@@H]1N[C@H]1C=C(CO)[C@@H](O)[C@H](O)[C@H]1O (some centres undefined)	1
Cc1ncc([N+](=O)[O-])n1CCO	0

Now take the following compound into account.
q: Find the measured HepSE_jaundice: item C[C@H](O)[C@H](O)[C@H]1CNc2nc(N)[nH]c(=O)c2N1 , target or system Hepatotoxicity.
a: 0

###

Entries with their measured HepSE_bilirubinemia, system Hepatotoxicity:
Returns: the value as a bare number; no unit string appended.

compound	HepSE_bilirubinemia
CCCCC[C@H](O)/C=C/[C@H]1[C@H](O)CC(=O)[C@@H]1CCCCCCC(=O)O	1
Cc1cccc(C)c1NC(=O)C1CCCCN1C (stereo not drawn) [MEPIVACAINE]	0
Cl.N [AMMONIUM CHLORIDE]	0
C[C@]12C=CC(=O)C=C1CC[C@@H]1[C@@H]2[C@@H](O)C[C@@]2(C)[C@H]1CC[C@]2(O)C(=O)CO	0
C=CC[C@@H]1/C=C(\C)C[C@H](C)C[C@H](OC)[C@H]2O[C@@](O)(C(=O)C(=O)N3CCCC[C@H]3C(=O)O[C@H](/C(C)=C/[C@@H]3CC[C@@H](O)[C@H](OC)C3)[C@H](C)[C@@H](O)CC1=O)[C@H](C)C[C@@H]2OC [TACROLIMUS ANHYDROUS]	1

q: Find the measured HepSE_bilirubinemia: item CC1(C)S[C@@H]2[C@H](NC(=O)Cc3ccccc3)C(=O)N2[C@H]1C(=O)O , target or system Hepatotoxicity.
a: 0

q: Find the measured HepSE_bilirubinemia: item OC[C@@H](O)[C@@H](O)[C@H](O)[C@H](O)CO , target or system Hepatotoxicity.
a: 0

q: Find the measured HepSE_bilirubinemia: item CC(C(=O)O)c1ccc(C(=O)c2cccs2)cc1 (stereo not drawn) , target or system Hepatotoxicity.
a: 0
